Molecular target: SUMO (Homo sapiens, UniProt Q9UBT2)
Sequence (Q9UBT2 1-640): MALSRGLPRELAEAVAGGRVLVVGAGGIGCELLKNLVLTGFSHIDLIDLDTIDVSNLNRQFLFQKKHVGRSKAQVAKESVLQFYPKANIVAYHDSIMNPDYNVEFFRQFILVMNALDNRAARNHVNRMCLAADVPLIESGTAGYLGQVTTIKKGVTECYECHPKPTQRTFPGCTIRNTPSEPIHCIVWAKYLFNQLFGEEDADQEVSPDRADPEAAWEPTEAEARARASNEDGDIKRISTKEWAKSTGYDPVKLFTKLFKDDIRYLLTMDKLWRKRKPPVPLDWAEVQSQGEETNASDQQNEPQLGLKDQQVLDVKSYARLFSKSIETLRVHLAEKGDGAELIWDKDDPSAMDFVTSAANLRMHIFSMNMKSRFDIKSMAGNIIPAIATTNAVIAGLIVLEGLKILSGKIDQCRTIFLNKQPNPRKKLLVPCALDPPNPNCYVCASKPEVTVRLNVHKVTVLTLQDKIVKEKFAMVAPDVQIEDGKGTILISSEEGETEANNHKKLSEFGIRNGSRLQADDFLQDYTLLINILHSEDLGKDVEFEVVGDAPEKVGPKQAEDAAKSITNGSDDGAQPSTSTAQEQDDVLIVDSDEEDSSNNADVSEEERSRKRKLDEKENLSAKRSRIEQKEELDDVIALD
Sequence (Q9UBE0 1-346 partner): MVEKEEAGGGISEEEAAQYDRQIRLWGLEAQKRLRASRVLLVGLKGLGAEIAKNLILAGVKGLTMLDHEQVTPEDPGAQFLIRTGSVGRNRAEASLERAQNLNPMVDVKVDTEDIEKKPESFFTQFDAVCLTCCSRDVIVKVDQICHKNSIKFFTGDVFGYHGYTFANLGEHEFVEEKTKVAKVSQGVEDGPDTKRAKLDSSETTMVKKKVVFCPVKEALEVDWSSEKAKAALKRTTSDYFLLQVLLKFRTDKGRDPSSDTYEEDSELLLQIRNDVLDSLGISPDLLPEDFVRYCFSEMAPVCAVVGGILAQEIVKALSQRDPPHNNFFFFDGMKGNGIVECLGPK
Test: SUMO activity (Table I, biological activities)
Type: biochemical
Design: key: + (less active); ++ (active); +++ (most active)
Property Measured: SUMO

COC(=O)C1=C(C(=O)OC)C2(C(Cc3ccccc3)Oc3ccccc3)C=CC1O2 (stereo not shown); ++
CCOc1cccc(NC(Cc2ccccc2)C23C=CC(O2)C(C(=O)OC)=C3C(=O)OC)c1 (stereo not shown); ++
COCCN1CCC(NC(=O)C2=C(C(=O)OC)C3(C(Cc4ccccc4)Nc4ccccc4)C=CC2O3)CC1 (stereo not shown); +++
COC(=O)C1=C(C(=O)NCCN(C)C)C2C=CC1(C(Cc1cccc(F)c1)Nc1cc(F)cc(F)c1)O2 (stereo not shown); +++

---

Biological target: SUMO (Homo sapiens, UniProt Q9UBT2)
Experiment: SUMO activity (Table I, biological activities)
Assay type: biochemical
Set-up: key: + (less active); ++ (active); +++ (most active)
Property Measured: SUMO

COC(=O)C1=C(C(=O)OC)C2(C(Nc3ccccc3)c3ccc4ccccc4c3)C=CC1O2 (stereo not shown) [Compound 632]; +++
COC(=O)C1=C(C(=O)NC2CCN(C(=O)c3ccccn3)CC2)C2C=CC1(C(Cc1ccccc1)Nc1ccccc1)O2 (stereo not shown) [Compound 391]; ++
CCOc1cccc(NC(Cc2ccccc2)C23C=CC(O2)C(C(=O)NCCN2CCOCC2)=C3C(=O)OC)c1 (stereo not shown) [Compound 252]; +++
COC(=O)C1=C(C(=O)OC)C2(C(Cc3ccccc3)N(C(=O)C(F)(F)F)c3ccccc3)C=CC1O2 (stereo not shown) [Compound 554]; ++
CCN(CC)CCNC(=O)C1=C(C(=O)OC)C2(C(Cc3ccccc3)Nc3cc(F)cc(F)c3)C=CC1O2 (stereo not shown) [Compound 400]; ++
COC(=O)C1=C(C(=O)OC)C2(C(Cc3ccccc3)Nc3cccc(Oc4ccccc4)c3)C=CC1O2 (stereo not shown) [Compound 307]; +++

Would you kindly look at the next entry?
Could you share what SUMO was measured for COC(=O)C1=C(C(=O)NCCN2CCCCC2)C2C=CC1(C(Cc1ccccc1)Nc1ccccc1)O2 (stereo not shown) [Compound 462] , tested on SUMO (Homo sapiens, UniProt Q9UBT2)?
++

---

Biological target: SUMO (Homo sapiens, UniProt Q9UBT2)
Sequence (Q9UBT2 1-640): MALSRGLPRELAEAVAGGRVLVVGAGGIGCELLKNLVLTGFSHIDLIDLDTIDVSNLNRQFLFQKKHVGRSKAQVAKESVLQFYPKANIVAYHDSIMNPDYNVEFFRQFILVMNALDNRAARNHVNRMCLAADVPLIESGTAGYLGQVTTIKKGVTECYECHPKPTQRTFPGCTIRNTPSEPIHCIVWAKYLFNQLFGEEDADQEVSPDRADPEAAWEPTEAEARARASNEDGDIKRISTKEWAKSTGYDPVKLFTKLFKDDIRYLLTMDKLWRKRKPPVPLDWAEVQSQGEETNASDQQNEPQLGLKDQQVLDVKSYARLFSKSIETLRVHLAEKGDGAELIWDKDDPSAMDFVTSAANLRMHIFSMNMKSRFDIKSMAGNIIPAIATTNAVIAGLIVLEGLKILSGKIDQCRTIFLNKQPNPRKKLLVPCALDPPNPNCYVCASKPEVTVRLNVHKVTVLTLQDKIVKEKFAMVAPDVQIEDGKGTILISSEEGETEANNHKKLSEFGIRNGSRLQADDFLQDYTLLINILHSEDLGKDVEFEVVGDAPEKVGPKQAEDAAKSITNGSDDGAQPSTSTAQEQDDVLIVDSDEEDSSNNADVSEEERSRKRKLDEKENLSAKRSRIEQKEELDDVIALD
Sequence (Q9UBE0 1-346 partner): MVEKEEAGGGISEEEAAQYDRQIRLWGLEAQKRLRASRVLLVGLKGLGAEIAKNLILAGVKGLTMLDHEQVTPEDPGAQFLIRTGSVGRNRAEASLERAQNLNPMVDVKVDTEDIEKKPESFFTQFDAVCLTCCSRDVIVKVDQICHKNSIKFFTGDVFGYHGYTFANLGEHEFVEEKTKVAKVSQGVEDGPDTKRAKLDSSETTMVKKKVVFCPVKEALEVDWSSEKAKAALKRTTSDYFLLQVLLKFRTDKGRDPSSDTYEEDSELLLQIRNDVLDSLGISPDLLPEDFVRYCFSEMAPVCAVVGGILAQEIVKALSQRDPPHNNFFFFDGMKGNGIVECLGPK
Assay: SUMO activity (Table I, biological activities)
Type: biochemical
Set-up: key: + (less active); ++ (active); +++ (most active)
Property Measured: SUMO

A selection of reference data follows.
COC(=O)C1=C(C(=O)NCCN(C)C)C2C=CC1(C(Cc1ccccc1Cl)Nc1ccc(F)cc1)O2 (centres unmarked); +++
CCCCC(Nc1ccccc1)C12C=CC(O1)C(C(=O)NC1CCN(C)CC1)=C2C(=O)OC (centres unmarked); ++
CCOc1cccc(NC(Cc2ccccc2)C23C=CC(O2)C(C(=O)NC2CCN(C)CC2)=C3C(=O)OC)c1 (centres unmarked); +++
COC(=O)C1=C(C(=O)NC2CCN(C)CC2)C2C=CC1(C(Cc1ccccc1)Nc1ccccc1F)O2 (centres unmarked); ++
COC(=O)C1=C(C(=O)NC2CCN(C)CC2)C2C=CC1(C(Cc1ccccc1)Nc1ccc(F)cc1)O2 (centres unmarked); ++

Then there is this molecule:
Return SUMO measured with SUMO (Homo sapiens, UniProt Q9UBT2) given this molecule: COC(=O)C1=C(C(=O)NCCN2CCCC2)C2C=CC1(C(Cc1ccccc1)Nc1ccc(F)cc1)O2 (centres unmarked)
+++

---

Target: UniProt Q9UBT2
Sequence (Q9UBT2 1-640): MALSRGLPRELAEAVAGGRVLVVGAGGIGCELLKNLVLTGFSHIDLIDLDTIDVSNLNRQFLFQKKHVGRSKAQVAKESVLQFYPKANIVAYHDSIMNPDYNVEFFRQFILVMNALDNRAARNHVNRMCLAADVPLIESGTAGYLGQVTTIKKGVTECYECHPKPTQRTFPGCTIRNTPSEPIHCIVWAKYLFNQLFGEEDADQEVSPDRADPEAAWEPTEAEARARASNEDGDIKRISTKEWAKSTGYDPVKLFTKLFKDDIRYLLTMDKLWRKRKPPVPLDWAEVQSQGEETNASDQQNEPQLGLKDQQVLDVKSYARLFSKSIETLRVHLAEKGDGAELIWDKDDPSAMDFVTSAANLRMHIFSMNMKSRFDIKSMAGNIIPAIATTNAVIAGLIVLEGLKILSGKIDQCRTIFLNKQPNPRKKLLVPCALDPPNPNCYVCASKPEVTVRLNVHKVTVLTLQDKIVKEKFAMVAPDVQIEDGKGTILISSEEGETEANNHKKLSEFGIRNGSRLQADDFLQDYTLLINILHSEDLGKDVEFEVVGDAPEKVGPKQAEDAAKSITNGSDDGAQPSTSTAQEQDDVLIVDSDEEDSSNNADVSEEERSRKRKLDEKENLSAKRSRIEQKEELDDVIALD
Sequence (Q9UBE0 1-346 partner): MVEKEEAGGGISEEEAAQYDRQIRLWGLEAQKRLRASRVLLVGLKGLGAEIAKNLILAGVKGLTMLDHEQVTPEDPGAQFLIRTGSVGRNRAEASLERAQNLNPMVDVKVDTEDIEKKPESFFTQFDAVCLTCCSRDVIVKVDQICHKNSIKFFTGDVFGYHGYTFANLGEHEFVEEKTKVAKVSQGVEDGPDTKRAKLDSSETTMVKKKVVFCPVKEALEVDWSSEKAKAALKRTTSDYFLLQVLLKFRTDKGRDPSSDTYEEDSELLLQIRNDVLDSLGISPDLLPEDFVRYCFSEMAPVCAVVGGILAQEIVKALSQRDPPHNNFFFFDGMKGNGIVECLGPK
Test: SUMO activity (Table I, biological activities)
Format: biochemical
Parameters: key: + (less active); ++ (active); +++ (most active)
Property Measured: SUMO

Some solved entries appear below for comparison.
CC(C)(C)OC(=O)C1=C(C(=O)OC(C)(C)C)C2(C(Cc3ccccc3)Nc3ccc(F)cc3F)C=CC1O2 (centres unmarked); +++
COC(=O)C1=C(C(=O)NC2CCN(C(C)C)CC2)C2C=CC1(C(Cc1ccccc1)Oc1ccccc1)O2 (centres unmarked); ++
CCOC(=O)C1=C(C(=O)OCC)C2(C(Cc3ccc(F)cc3)Nc3ccccc3)C=CC1O2 (centres unmarked); ++
COC(=O)C1=C(C(=O)Nc2ccc(C)c(F)c2)C2C=CC1(C(Cc1ccccc1)Nc1cc(F)cc(Cl)c1)O2 (centres unmarked); ++

Turning to the following compound.
What value of SUMO has been reported for the following compound? CCOC(=O)C1=C(C(N)=O)C2C=CC1(C(Nc1ccccc1)c1ccc(CN3CCOCC3)cc1)O2 (centres unmarked)
++
